Biological target: ETS1 (UniProt P14921)
Sequence: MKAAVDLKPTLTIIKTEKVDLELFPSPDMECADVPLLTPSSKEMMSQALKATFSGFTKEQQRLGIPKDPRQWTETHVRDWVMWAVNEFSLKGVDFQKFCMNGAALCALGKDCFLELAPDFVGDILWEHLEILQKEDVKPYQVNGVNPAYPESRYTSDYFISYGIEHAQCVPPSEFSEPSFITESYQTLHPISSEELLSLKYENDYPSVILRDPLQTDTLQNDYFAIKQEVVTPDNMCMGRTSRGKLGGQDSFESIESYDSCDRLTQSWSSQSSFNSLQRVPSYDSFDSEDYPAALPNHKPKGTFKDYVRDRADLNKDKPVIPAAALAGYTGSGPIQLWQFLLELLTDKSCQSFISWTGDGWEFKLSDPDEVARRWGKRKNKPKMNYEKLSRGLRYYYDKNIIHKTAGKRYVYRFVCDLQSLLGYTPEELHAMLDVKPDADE
Assay: ETS1 binding intensity (PBM fluorescence), ETS1 alone (arbitrary fluorescence units); higher = stronger binding
Conditions: ETS1 concentration 1 nM; RUNX1 concentration 0 nM
Record form. Attribute: ETS1 binding intensity. Fill in for each entry.
Answers are plain numbers.

These solved cases illustrate the format of a correct answer.
AAAGGCGGAAGGGGGGCAGGGAACCCACAAAACAGA; 457
GCCGCTGGGTAGGCGGAAGTAGCCGCAGGCATGGCA; 5590
CCGGGTAGGATCCGGTTGCCTTTCTGCGGTGGAGGA; 410
GTACGACAGCGGGTTCCGGTGACCACGAAGGCGGCA; 404
TTTACGGGATGTAGGCGGCGGCGGCGGTAGTGGTAG; 701

I need ETS1 binding intensity for every entry listed below, if you could help.
1. TGCCGTTTCCGGGTCACCCAGGCAGCTTGTGGCGGC
2. GTCTTCACATGTAGGGGAAGTGGGTTAGCGTAGGAG
3. TCTTTAAAACCCGGAAGTTCCTGTGGTTCATACGCT
4. TTCATCTACTTCCCGCCACACCCACAGAGAAGCCCA
5. CCACTGCCGGAAGGGGAACTGTGGGGGTGCGCGAGT
6. CCAGCCGGAAGCCCCGCCCCCTAGAGGCACCGCGGA
7. AGACGGTAGGCCAGGAAACCGCAGGCCCCTGCCGGG
8. CCCCGCCTCTTCCGCTTCTGTGGTCTGATCTGCCTG

1: 528; 2: 951; 3: 8500; 4: 469; 5: 1110; 6: 1010; 7: 925; 8: 704

I need ETS1 binding intensity for every entry listed below, if you could help.
1. ACAGGTTCAGGAAGCGGCCGTGGTTGTTAGTGGTGT
2. TGGCTGTGTCCCGGAAGTGGTCATAAGCTGGGTCCC
3. AAACTACACCTCAGAGGATGTGGTTCCTTCTCTCAT

718
8520
1130

I need ETS1 binding intensity for every entry listed below, if you could help.
1. TGAAGCAGGCGGAAGTGCTGTGGTTTCTGGCGACTG
2. AGGCAAACAGGATGTTCCTCTCCCACATGCAGACTT
3. CTTGTTATCCTTCCGGAGGCGGTAACTCATGAGAGA
4. GCAGGACTCCAGGAAGCCCGCGCAGCCGCAAAAAGC
5. GCCTGTCGCAGGAACGGAAGTGGTTACGGCCCTAGT
6. GGGCAGCAGCAGACCGGAAACCACAGCCGACTAAGA
7. GAAGGTTGTAGAGGAAGTGGTTTGTTCTTCCTCCTG

4090
4200
497
597
8480
10700
2670

I need ETS1 binding intensity for every entry listed below, if you could help.
1. CCTGACTCTGGGTTTCCTCCCAGCCACAGACACCTG
2. TGATCAGCAAAAGGAAGTGGTTAACATGGCCCAGAA

[459, 1540]

I need ETS1 binding intensity for every entry listed below, if you could help.
1. TGCGAGGTTGCCAGGAAACCGCGAAGCCGAGGTCCC
2. AAACAGGAAATCACAGCAGCGTTGCGGAGTGGAGCA

1: 808; 2: 1100

I need ETS1 binding intensity for every entry listed below, if you could help.
1. CACCGCCGGAGTCCCGGATGTGGTTGCTAGGGCAGC
2. TTCAACAAGGTTTTCCTGTGGTTACCCCATGCTTTG
3. TGGTTTCTCACTGGCGGATGTGGGTGGGTCGCCTCC
4. TGCAATCAGGAAGCCTGCCCCTCTAGAACCACAAAA

[5070, 364, 4130, 540]

I need ETS1 binding intensity for every entry listed below, if you could help.
1. TGGGGGATGGCAGCAGGATGTGGTTATCTCAGAAAG
2. TCCCTAAGTCACATCCTGTGGGCAAAGGCCCTAGCA
3. AACAGCTTCCGGCACGGGGGCTGTGGTTGTGTTGGA
4. TATGACCAGGGGAGGGAAGTGACCACAGCATATCAC
5. ACAGATGGTCCGGAACTTCAGAAAACCACTCATTGT
6. GGCTTGCCAAGAGGAAATTTGAAGCCACAATAACAT

1: 3330; 2: 880; 3: 670; 4: 466; 5: 583; 6: 808

I need ETS1 binding intensity for every entry listed below, if you could help.
1. GCCCAGGGAAGCACTTCCTGCGGGGCGCGGTGCAGC
2. CAGGAGCAGTGTAGAGGAAGTGGTTTCCATCACGGA
3. TGGCTTCCTGTCTGTCCTTCATCAGCCCACAGAGGC
4. CTGTGAGGCGGAAGTGGCGGGCTCTGTGGGCGCAAG
5. CACCTCCTACTTCCCCCCGCTGATAACCACCAACCC

1. 1030
2. 2630
3. 517
4. 3860
5. 1700

* * *

molecular target: RUNX1 (UniProt Q01196); assay: RUNX1 binding intensity (PBM fluorescence) in presence of ETS1, normalised to RUNX1-only experiment (arbitrary fluorescence units); higher = stronger binding; conditions: RUNX1 concentration 2 nM; ETS1 concentration 25 nM
Sequence (Q01196 whole entry): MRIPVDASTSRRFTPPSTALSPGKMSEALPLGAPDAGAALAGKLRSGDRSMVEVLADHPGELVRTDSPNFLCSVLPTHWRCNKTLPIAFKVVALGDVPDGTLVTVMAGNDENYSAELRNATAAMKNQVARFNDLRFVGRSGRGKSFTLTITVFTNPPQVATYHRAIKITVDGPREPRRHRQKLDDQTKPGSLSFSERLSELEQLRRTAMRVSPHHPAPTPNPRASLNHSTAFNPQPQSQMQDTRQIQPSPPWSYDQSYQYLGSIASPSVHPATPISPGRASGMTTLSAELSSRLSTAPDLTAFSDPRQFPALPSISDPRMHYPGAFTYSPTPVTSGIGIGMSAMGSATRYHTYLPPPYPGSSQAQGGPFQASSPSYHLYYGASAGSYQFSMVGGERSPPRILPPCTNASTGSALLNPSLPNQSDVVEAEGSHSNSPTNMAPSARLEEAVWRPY
Record form. Attribute: RUNX1 binding intensity. Fill in for each entry.
Answers are plain numbers.

TCTAACGCTGAAGGAGGATGTGGTTTCCTATTGGAC; 2110
GCTGCCGGAAAAGGCGCCGAGGTAACCGCCTCACTT; 1020
GCCCAGGGAAGCACTTCCTGCGGGGCGCGGTGCAGC; 1500
ACCTCATCCTGCTGTTCTTGTGTGTGGTTGAGCAGT; 1340
ACTTGACTTCCTGTGGGGTGTGTGGTGTCTGCACTT; 2010
GCTCCCGGATGTTCTGGGGATCTGCGGCCGCCTGGC; 1320
TGTTTTCGCTCTTCCTGGCCTTGCGGGCAGCCAGGA; 1510
GAGGGGTGGGGGAGGAAGGCTGCGGTTTCTGCTGGG; 11100

I need RUNX1 binding intensity for every entry listed below, if you could help.
1. TACCCAGAAAGGAAGTGGAACCTGCGGTGAGGCCCC
2. ATGGGGAACGGGAAATACGGCGGGAACCACAATCGC
3. CAGATTCAAGGAAGTGGTGGTGGTTTGGTGTCGTTG
4. CTTGTGCCTACATCCTGTAGCTGTGGTTTAGGGACG
5. CATTTACAGAAAAGGAAACCGCAAGTTTGAGCAAGT
6. AGCTTGCTTCCTGTCCCCAAAACCCACAGCACACGG
7. ACAAAGAAACCTACATCCTAAGCCACAGAATACAGC
8. TCCCCTCTCCCCATCCGCCCGAGACCACAGCCACTC

1. 1950
2. 1020
3. 907
4. 2050
5. 30700
6. 2590
7. 881
8. 1570

I need RUNX1 binding intensity for every entry listed below, if you could help.
1. TCTGTCGCACATCCGGTGTGAGCTGCGGGGCGGTGG
2. GACTTCCTGTTGAAGATTGGCCTCTGCGGTACCACG
3. AGGAGAAGGAAGAGGATGTTGAGGTTGGGGGAAACC
4. AGCGCCCCATCCCGCGGATGTGGTAAAGCTTCGCGC
5. GGTTCGCGGCTTCCGGGACATTTGTACCGCAGGGGG
6. CCATCCAGGAAGCTTATGGTGCAACCGCAGTGTGCC

[1640, 9740, 882, 1570, 1510, 1620]

I need RUNX1 binding intensity for every entry listed below, if you could help.
1. AAAATTAAAGCAGGAAGTAATCAACCACATCAAATG
2. GACAAAACACAGAAAGGAAGTGGTCAACTATTGCAC
3. TAGCCACTAACCGGAAACGTTAAACCACAGCTCCGT

1610
1600
7440

* * *

Biological target: ETS1 (UniProt P14921)
Sequence: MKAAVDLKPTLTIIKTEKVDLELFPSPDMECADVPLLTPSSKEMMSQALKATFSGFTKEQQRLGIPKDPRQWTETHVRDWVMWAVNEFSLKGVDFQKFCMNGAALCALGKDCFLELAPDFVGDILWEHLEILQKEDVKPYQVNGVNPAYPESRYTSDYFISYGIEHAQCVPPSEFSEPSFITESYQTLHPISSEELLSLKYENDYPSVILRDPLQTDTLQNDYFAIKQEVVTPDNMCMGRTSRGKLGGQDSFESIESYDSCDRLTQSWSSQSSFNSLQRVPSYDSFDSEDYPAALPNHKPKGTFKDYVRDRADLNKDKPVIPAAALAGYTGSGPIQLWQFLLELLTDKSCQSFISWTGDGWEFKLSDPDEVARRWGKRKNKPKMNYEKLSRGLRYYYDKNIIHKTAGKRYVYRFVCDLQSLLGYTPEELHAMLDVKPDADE
Assay: ETS1 binding intensity (PBM fluorescence), ETS1 alone (arbitrary fluorescence units); higher = stronger binding
Details: ETS1 concentration 1 nM; RUNX1 concentration 0 nM
ETS1 binding intensity of 1000 or higher: condition met. Under 1000: condition not met.

Given GGTTTAACGTTTCCGGTTTGTGGCTAGTTTCTTGTC , state whether its ETS1 binding intensity is at least 1000.
condition met

Request: CCCTGAGCACTTCCCCGTAAGGCTGCGGTGCACGGG
condition not met

Request: TACCTACATCCTGCCACCACCCGAGGGGACCGCAAG
condition not met

Request: CTCAGGAATGCGGAAGTGCTCTGTGGGCACCCACCA
condition met

Request: TCAATGACAGGAAGTTTTTAAACCACATACGGCTAA
condition met

Request: GGGTCCTTCCGGGTTTTGTGTCGAATCTGCGGCGGC
condition not met

Request: GCCTGCGCTCTTTCCGGTAGCCACAGCCTCGTCTAA
condition met

Request: AGCCACATCCTGGACAAAAGCTGTGGTCTAGTAACC
condition not met

Request: AGACCCGGACCGGAACCTTGGCGCGGTGACGCTAGT
condition met

Request: GTGCCCCGGACCTACGGATACCACACACAGACAGGC
condition not met

Request: GAGCACATTTCCTTTTGCTTCCAGATACCACAGTGA
condition not met

Request: GGCGGTGACCGGAAGAGCTGAGTCACCGCAGGCGAC
condition met
